ASSAY TARGET: UniProt P00533
Sequence (P00533 25-1210): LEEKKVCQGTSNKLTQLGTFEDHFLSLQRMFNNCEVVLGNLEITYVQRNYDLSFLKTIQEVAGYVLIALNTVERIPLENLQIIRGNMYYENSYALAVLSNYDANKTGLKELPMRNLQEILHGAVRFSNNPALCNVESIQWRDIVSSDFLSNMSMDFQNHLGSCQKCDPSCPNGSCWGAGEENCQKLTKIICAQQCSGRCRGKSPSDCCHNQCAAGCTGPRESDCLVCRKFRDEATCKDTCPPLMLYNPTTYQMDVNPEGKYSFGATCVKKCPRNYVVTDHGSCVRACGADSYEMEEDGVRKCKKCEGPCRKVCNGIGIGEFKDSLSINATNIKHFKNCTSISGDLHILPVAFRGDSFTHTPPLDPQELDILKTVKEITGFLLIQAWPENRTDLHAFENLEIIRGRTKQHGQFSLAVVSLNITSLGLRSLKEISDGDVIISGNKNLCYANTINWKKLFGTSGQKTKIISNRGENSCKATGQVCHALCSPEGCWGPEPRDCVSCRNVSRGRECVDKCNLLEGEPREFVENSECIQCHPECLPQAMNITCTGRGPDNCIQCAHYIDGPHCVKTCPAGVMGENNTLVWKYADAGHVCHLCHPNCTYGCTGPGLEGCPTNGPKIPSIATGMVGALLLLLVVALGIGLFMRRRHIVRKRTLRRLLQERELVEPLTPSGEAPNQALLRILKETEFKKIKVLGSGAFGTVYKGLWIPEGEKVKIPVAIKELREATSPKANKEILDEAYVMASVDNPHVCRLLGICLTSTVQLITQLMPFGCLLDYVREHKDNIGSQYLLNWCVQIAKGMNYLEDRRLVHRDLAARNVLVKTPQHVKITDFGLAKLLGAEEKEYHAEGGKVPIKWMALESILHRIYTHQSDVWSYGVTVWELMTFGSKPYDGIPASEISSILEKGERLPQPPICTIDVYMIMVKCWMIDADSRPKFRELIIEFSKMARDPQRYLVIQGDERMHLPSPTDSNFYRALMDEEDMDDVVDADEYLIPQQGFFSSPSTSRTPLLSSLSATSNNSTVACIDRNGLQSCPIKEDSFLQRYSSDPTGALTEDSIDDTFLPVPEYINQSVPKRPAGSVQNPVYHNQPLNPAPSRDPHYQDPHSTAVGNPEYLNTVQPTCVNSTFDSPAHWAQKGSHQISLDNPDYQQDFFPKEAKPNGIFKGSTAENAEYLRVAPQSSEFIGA
TEST SUMMARY: ErbB Enzyme Assay (HTRF KinEASE-TK), Assay 3
Type: biochemical
SETUP CONDITIONS: EGFR enzyme assay
ASSAY READOUT: IC50 (µM)

[I] C=CC(=O)N1CCN(c2ccc3ncnc(Nc4ccc(Oc5ccn6ncnc6c5)c(C)c4F)c3n2)C[C@H]1C(C)C
[II] C=CC(=O)N1C[C@H]2CC[C@H](c3ccc4ncnc(Nc5ccc(Oc6ccn7ncnc7c6)c(C)c5F)c4n3)[C@H]2C1
[III] C=CC(=O)N1CCN(c2ccc3ncnc(Nc4cc(C)c(Oc5ccc6c(c5)ncn6C)cc4F)c3n2)C[C@H]1C(C)C
Query: Reorder the items by IC50, least to greatest. List each label, following the requested order.
Result: II, III, I
